Listing of entries alongside the reported viability, T/C.
Tested on: 299254-011-R-J1-PDC complex spheroid viability;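 also: spheroids exposed to drugs for one week before measurement; percent viability relative to DMSO vehicle control taken as 100%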
PROTOCOL SUMMARY: Anticancer human tumor 299254-011-R-J1-PDC patient-derived melanoma cell line growth inhibition [POLQ]
TEST CONTEXT: second compound 0.1 µM; first compound 10 µM; stronger effect = lower value
MEASURE NAME: viability, T/C (%)

COMPOUND: COc1cc2cc(C(=O)CCC(=O)O)sc2cc1OC + Cc1cccc(N(C)C(=O)C2C(O)CCN2c2nc(C)cc(C(F)(F)F)c2C#N)c1
RESULT UNIT: %
TEST VALUE: 101
//
COMPOUND: O=C(Nc1ccc(O)c(NS(=O)(=O)c2ccc(F)cc2)c1)c1ccc(-c2ccccc2)cc1 + Nc1ccc(C#CCN(C(=O)Cc2ncc(C(F)(F)F)cc2C(F)(F)F)c2ccc(F)cc2)nn1
RESULT UNIT: %
TEST VALUE: 42.4
//
COMPOUND: COc1cc2cc(C(=O)CCC(=O)O)sc2cc1OC + COC1C(OC(N)=O)C(O)C(Oc2ccc3c(O)c(NC(=O)c4ccc(O)c(CC=C(C)C)c4)c(=O)oc3c2C)OC1(C)C
RESULT UNIT: %
TEST VALUE: 114
//
COMPOUND: CC1COCCN1c1cc(-c2ccnn2C)c2ccnc(-c3ccn[nH]3)c2n1 (stereo unspecified) + Nc1ccc(C#CCN(C(=O)Cc2ncc(C(F)(F)F)cc2C(F)(F)F)c2ccc(F)cc2)nn1
RESULT UNIT: %
TEST VALUE: 25.4
//
COMPOUND: CC1COCCN1c1cc(C2(S(C)(=N)=O)CC2)nc(-c2ccnc3[nH]ccc23)n1 (stereo unspecified) + Cc1cccc(N(C)C(=O)C2C(O)CCN2c2nc(C)cc(C(F)(F)F)c2C#N)c1
RESULT UNIT: %
TEST VALUE: 36.7
//
COMPOUND: O=C(c1cc(Cc2n[nH]c(=O)c3ccccc23)ccc1F)N1CCN(C(=O)C2CC2)CC1 + Nc1ccc(C#CCN(C(=O)Cc2ncc(C(F)(F)F)cc2C(F)(F)F)c2ccc(F)cc2)nn1
RESULT UNIT: %
TEST VALUE: 88
//
COMPOUND: CC1COCCN1c1cc(C2(S(C)(=N)=O)CC2)nc(-c2ccnc3[nH]ccc23)n1 (stereo unspecified) + Nc1ccc(C#CCN(C(=O)Cc2ncc(C(F)(F)F)cc2C(F)(F)F)c2ccc(F)cc2)nn1
RESULT UNIT: %
TEST VALUE: 40.3
//
COMPOUND: Nc1ccn(C2OC(CO)C(O)C2(F)F)c(=O)n1 (stereo unspecified) + Nc1ccc(C#CCN(C(=O)Cc2ncc(C(F)(F)F)cc2C(F)(F)F)c2ccc(F)cc2)nn1
RESULT UNIT: %
TEST VALUE: 46.9
//
COMPOUND: COc1ccc([C@@H](O)c2cc(-c3ncnc4cc(N5CCOCC5)ccc34)c(F)cc2Cl)nn1 + Cc1cccc(N(C)C(=O)C2C(O)CCN2c2nc(C)cc(C(F)(F)F)c2C#N)c1
RESULT UNIT: %
TEST VALUE: 53.4
//
COMPOUND: CC1COCCN1c1cc(C2(S(C)(=N)=O)CC2)nc(-c2ccnc3[nH]ccc23)n1 (stereo unspecified) + COC1C(OC(N)=O)C(O)C(Oc2ccc3c(O)c(NC(=O)c4ccc(O)c(CC=C(C)C)c4)c(=O)oc3c2C)OC1(C)C
RESULT UNIT: %
TEST VALUE: 39.9
//
COMPOUND: CC1COCCN1c1cc(-c2ccnn2C)c2ccnc(-c3ccn[nH]3)c2n1 (stereo unspecified) + COC1C(OC(N)=O)C(O)C(Oc2ccc3c(O)c(NC(=O)c4ccc(O)c(CC=C(C)C)c4)c(=O)oc3c2C)OC1(C)C
RESULT UNIT: %
TEST VALUE: 18.8

These data points were gathered from PubChem BioAssay AID1963849.
